target: Microphthalmia-associated transcription factor (Homo sapiens) (UniProt O75030); assay: MITF inhibitors, retest of hits, confirmation, biochemical, AlphaScreen, triplicate (AID 1259372); settings: AlphaScreen MITF homodimerization, biotin/His-MITF beads; at 2.6 µM
Sequence (O75030 whole entry, looked up): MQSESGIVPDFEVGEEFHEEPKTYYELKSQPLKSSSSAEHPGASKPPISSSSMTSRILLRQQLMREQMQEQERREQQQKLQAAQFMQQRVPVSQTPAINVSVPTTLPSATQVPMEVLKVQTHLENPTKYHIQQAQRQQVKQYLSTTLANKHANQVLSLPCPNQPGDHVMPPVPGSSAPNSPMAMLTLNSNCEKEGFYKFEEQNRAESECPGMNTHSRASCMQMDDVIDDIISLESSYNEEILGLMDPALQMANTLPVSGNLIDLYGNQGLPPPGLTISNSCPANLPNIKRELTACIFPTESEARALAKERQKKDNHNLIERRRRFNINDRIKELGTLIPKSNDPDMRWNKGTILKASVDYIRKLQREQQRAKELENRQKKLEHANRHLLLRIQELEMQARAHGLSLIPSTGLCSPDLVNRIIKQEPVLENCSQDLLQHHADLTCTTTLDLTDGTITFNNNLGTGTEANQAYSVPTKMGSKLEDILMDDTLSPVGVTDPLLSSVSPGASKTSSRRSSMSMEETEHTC
Hit rate of the full screen: of about 4,700 compounds, about 760 (16%) were called active.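 How the source made its calls: active means inhibition above a cutoff derived from the DMSO control wells (cut at about 28% in these data); inactive means the rest.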 A selection follows.
Please reply with one of these outcomes: active, inactive

Examples with answers:
Compound | Class label
COCc1nc2ccccc2n1CCc1noc(-c2ccco2)n1 | inactive
CSc1nnc(SCc2nc3sc(C(=O)O)c(C)c3c(=O)[nH]2)s1 | inactive
Cc1cc(S(=O)(=O)Nc2ccc3c(c2)OCCO3)ccc1-n1cnnn1 | inactive

I would be grateful if you could indicate the recorded call for `CCSc1ccccc1C(=O)N1CCN(c2ccc(-c3ccccn3)nn2)CC1` .
active

Called result for `COc1ccc(Br)cc1CN1CCN(CCOCCO)CC1`
inactive

Entry `COc1cc(OC)c(OC)cc1CN1CCN(Cc2ccc(F)cc2)CC1` : call = ?
inactive
